Measured pIC50, listed per entry.
# Test system: IL-17 production by CD4 T cells
# protocol.description: Human Th17 assay (IL-17 production by CD4 T cells under Th17 differentiation conditions)
# Assay type: cell-based
# conditions.used: Homo sapiens, CD4+ T, 72 h, IL-17 in supernatant after 3 days
Scale: negative log10 of molar concentration, which is what pIC50 denotes.

Completed entries (count: 3):
1. OC(c1ccc(C(F)(F)F)cc1)(c1cccnc1)c1ccc2nc(Cl)c(-c3ccccc3)c(Cl)c2c1 (stereo not shown) [Example 171]
6.52
2. OC(c1ccc(Cl)nc1)(c1cccc(Cl)c1)c1ccc2nc(Cl)c(-c3ccccc3)c(Cl)c2c1 (stereo not shown) [Example 56]
6.62
3. CCN(CC)c1nc2ccc(C(O)(c3ccncc3)c3cncn3C)cc2c(OC)c1-c1ccccc1 (stereo not shown) [Example 105]
6.72

Now look at this one.
Task item: Look up pIC50: Cc1cc(C(O)(c2ccnc(C(F)(F)F)c2)c2cncn2C)cc2c(Cl)c(-c3ccccc3)c(Cl)nc12 (stereo not shown) [Example 160]
Reply: 6.16

Data credit: patent US9309222B2
